The following compounds are listed with their measured Activity Met, % values.
- test.target: Met kinase (Homo sapiens, UniProt P08581)
- Sequence (P08581 25-1390): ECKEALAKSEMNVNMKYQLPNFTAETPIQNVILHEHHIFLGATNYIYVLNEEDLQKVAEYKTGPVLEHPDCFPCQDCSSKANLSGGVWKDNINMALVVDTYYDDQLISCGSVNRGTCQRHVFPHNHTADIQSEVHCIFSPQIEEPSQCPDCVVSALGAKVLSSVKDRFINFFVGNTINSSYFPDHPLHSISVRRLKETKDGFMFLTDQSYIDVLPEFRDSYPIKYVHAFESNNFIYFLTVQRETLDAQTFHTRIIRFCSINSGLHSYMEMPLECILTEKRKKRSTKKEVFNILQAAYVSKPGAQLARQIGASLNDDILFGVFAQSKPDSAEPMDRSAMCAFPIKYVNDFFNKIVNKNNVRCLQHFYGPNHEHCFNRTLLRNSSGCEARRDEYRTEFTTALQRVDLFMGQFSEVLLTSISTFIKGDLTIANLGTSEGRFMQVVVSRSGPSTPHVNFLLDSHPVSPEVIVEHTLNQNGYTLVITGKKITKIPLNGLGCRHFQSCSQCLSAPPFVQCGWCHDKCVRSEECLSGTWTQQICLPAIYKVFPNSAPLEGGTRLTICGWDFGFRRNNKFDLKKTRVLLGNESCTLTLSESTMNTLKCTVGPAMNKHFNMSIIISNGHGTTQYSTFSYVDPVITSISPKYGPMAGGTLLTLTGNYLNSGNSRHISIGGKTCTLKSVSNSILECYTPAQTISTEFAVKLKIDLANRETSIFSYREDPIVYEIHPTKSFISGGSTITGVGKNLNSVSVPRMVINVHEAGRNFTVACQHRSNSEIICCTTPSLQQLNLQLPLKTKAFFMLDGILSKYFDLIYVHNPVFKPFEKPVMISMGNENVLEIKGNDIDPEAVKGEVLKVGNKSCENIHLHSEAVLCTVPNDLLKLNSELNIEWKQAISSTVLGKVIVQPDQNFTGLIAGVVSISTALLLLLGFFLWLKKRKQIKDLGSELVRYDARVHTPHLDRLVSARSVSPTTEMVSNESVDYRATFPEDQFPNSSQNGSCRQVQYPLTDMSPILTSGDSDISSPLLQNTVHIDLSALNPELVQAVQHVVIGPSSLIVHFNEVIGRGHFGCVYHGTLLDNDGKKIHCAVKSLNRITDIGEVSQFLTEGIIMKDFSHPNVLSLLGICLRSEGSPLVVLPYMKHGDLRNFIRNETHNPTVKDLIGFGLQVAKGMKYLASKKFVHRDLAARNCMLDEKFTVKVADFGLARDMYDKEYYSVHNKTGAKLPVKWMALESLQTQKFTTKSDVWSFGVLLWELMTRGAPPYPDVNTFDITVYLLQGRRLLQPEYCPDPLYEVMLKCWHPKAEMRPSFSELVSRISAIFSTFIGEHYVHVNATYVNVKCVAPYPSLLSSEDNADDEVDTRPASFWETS
- method.description: Met ADP-Glo kinase selectivity assay, single concentration
- Type: biochemical
- experimental.setup: remaining kinase activity at 40 μM compound, 50 μM ATP

- structure.notation: "COc1ccc(NC(=O)c2ccc3c(c2)OCCO3)cc1"
  unit.abbreviation: "%"
  Activity Met, %: 77
- structure.notation: "CCOc1ccc(NS(=O)(=O)c2ccc3[nH]c(=O)cc(C(=O)Nc4ccn(C)n4)c3c2)cc1"
  unit.abbreviation: "%"
  Activity Met, %: 98
- structure.notation: "O=C(Nc1ccc2nccnc2c1)c1ccc2c(c1)OCCO2"
  unit.abbreviation: "%"
  Activity Met, %: 60
- structure.notation: "O=C(Nc1ccc2c(c1)OCO2)c1ccc2c(c1)OCCO2"
  unit.abbreviation: "%"
  Activity Met, %: 63
- structure.notation: "COc1cc(CNC(=O)c2ccc[nH]c2=S)ccc1OCc1ccncc1"
  unit.abbreviation: "%"
  Activity Met, %: 62

###

- test.target: UniProt:P08581
- method.description: Met ADP-Glo kinase selectivity assay, single concentration
- Type: biochemical
- experimental.setup: remaining kinase activity at 40 μM compound, 50 μM ATP
The following compounds are listed with their measured Activity Met, % values.

- compound: "O=C(NCc1ccc(Cn2ccnc2)cc1)c1ccc[nH]c1=S [Compound T4]"
  Activity Met, %, %: 75
- compound: "NS(=O)(=O)c1ccc(NNC(=O)c2ccc(NS(=O)(=O)c3cccs3)cc2)c([N+](=O)[O-])c1 [Compound T1]"
  Activity Met, %, %: 78
- compound: "O=C(Nc1ccc2c(c1)OCCO2)c1ccc2c(c1)OCCO2 [Compound L1]"
  Activity Met, %, %: 102

###

- test.target: Syk kinase (Homo sapiens, UniProt P43405)
- method.description: Syk ADP-Glo kinase selectivity assay, single concentration
- Format: biochemical
- experimental.setup: remaining kinase activity at 40 μM compound, 50 μM ATP
Simple rule here: Activity Syk, % less than 90% is Y, otherwise N.

- structure.notation: "NS(=O)(=O)c1ccc(NNC(=O)c2ccc(NS(=O)(=O)c3cccs3)cc2)c([N+](=O)[O-])c1"
  category: "Y"
- structure.notation: "O=C(Nc1ccc2nccnc2c1)c1ccc2c(c1)OCCO2"
  category: "Y"
- structure.notation: "COc1cc(CNC(=O)c2ccc[nH]c2=S)ccc1OCc1ccncc1"
  category: "Y"
- structure.notation: "O=C(Nc1ccc2c(c1)OCO2)c1ccc2c(c1)OCCO2"
  category: "Y"
- structure.notation: "O=C(NCc1ccc(Cn2ccnc2)cc1)c1ccc[nH]c1=S"
  category: "N"
- structure.notation: "CCOc1ccc(NS(=O)(=O)c2ccc3[nH]c(=O)cc(C(=O)Nc4ccn(C)n4)c3c2)cc1"
  category: "N"
- structure.notation: "O=C(Nc1ccc2c(c1)OCCO2)c1ccc2c(c1)OCCO2"
  category: "N"
